Test: RPL19A-GFP modulators, yeast TOR pathway, confirmation, cell-based, S. cerevisiae, flow cytometry, cherry picks, mother/daughter gates (AID 2270)
Settings: S. cerevisiae RPL19A-GFP strain, 3 h, measured here: daughter cell gate, at 10 µM, stronger effect = lower value, 100 = same GFP as DMSO wells
Provide the reported GFP response vs DMSO of each item.
Express it in %; write the number only.

Reported GFP response vs DMSO ( COC(=O)CCS(=O)(=O)c1nc(-c2ccccc2)cc(C(F)(F)F)n1 ) = 102

Reported GFP response vs DMSO ( CN(CCCS(=O)(=O)[O-])c1ccc(/C=C/c2ccc3ccccc3[n+]2C)cc1 ) = 100

Reported GFP response vs DMSO ( Cc1cccc(N2C(=O)c3cccc4c(N(C)CCO)ccc(c34)C2=O)c1 ) = 96.9

Reported GFP response vs DMSO ( CC(=O)c1ccc(N2CCN(S(=O)(=O)c3ccc4c(c3)CC(C)N4C(C)=O)CC2)cc1 (stereo not given) ) = 93.9

Reported GFP response vs DMSO ( CN1CCN(CC(=O)N2CCn3c4c(c5cc(C6CCCCC6)ccc53)CCCC42)CC1 (stereo not given) ) = 86.4

Reported GFP response vs DMSO ( COc1ccc(-c2noc(CCC(=O)Nc3cccc(C)c3)n2)cc1 ) = 96.7

Reported GFP response vs DMSO ( O=C1CC(Sc2nnc(-c3ccccc3O)o2)C(=O)N1c1ccccc1 (stereo not given) ) = 98.3

Reported GFP response vs DMSO ( Cc1oc2c(CN3CCCC(C)C3)c(O)ccc2c(=O)c1-c1ccccc1 (stereo not given) ) = 102

Reported GFP response vs DMSO ( O=C(Nc1nc(-c2ccccc2Cl)cs1)c1cccnc1 ) = 94.7

Reported GFP response vs DMSO ( O=C1Oc2ccccc2C(=O)/C1=C/c1ccccc1O ) = 89.3

----------
Provide the reported GFP response relative to DMSO of each item.
Assay: LAP4-GFP expression modulators in yeast, confirmation, cell-based, cherry picks, flow cytometry, mother/daughter gates (AID 2271);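 also: ratio of sample to DMSO plate mean so 100% equals DMSO level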
Details: S. cerevisiae LAP4-GFP strain, 3 h, measured here: daughter cell gate response, at 10 µM, stronger effect = higher value, 100 means same as DMSO control
Express it in %; write the number only.

Reported GFP response relative to DMSO ( O=C(NC(c1ccccc1)C(Cl)Cl)c1ccccc1 (stereo unspecified) ) = 104

Reported GFP response relative to DMSO ( CCN(CC)S(=O)(=O)c1ccc(O)c(C(=O)OCC(=O)NC2CCCC2)c1 ) = 97.5

Reported GFP response relative to DMSO ( COc1cccc(C(=O)Nc2ccccc2)c1 ) = 102

Reported GFP response relative to DMSO ( Cc1cc(NC(=O)c2cc3ccccc3o2)ccc1NC(=O)c1ccccc1 ) = 94.4

Reported GFP response relative to DMSO ( O=C(O)Cc1sc(Nc2ccccc2)nc1-c1cccs1 ) = 144

Reported GFP response relative to DMSO ( O=S(=O)(c1ccc(Oc2ccc(Br)cc2)cc1)N1CCOCC1 ) = 86.4

Reported GFP response relative to DMSO ( O=[N+]([O-])c1cccnc1S(=O)(=O)c1ccccc1 ) = 110

Reported GFP response relative to DMSO ( COc1cc(C2CC(c3cccnc3)=NN2c2ccc(F)cc2)cc(OC)c1OC (stereo unspecified) ) = 94.4

Reported GFP response relative to DMSO ( Cc1occc1-c1nnc(-c2cc([N+](=O)[O-])cc([N+](=O)[O-])c2)o1 ) = 126

Reported GFP response relative to DMSO ( COC(=O)c1ccc(Sc2ccccn2)c([N+](=O)[O-])c1 ) = 101

Reported GFP response relative to DMSO ( O=C1c2cccc3cccc(c23)C(=O)N1c1nncs1 ) = 94.1

----------
Provide the reported GFP response, % of DMSO of each item.
Experiment: modulators of CIT2-GFP expression in yeast, confirmation, S. cerevisiae, GFP fusion, cherry picks, mother/daughter gates (AID 2274)
Details: S. cerevisiae CIT2-GFP strain, flow cytometry, 3 h; measured here: daughter cell gate; at 10 µM; stronger effect = higher value
Express it in %; write the number only.

Reported GFP response, % of DMSO ( COc1ccc(OC)c(NC(=O)c2cccc3c2C(=O)N(C2CCCCC2)C3)c1 ) = 103

Reported GFP response, % of DMSO ( Cc1ccc2[nH]cc(/C=C/c3cc[n+](C)cc3)c2c1 ) = 156

Reported GFP response, % of DMSO ( Cc1ccc(/C=C2/C(=O)ON=C2c2ccccc2)o1 ) = 90.9

Reported GFP response, % of DMSO ( COCc1cc(=O)[nH]c(SCCS(=O)(=O)c2ccc(Cl)cc2Cl)n1 ) = 119

Reported GFP response, % of DMSO ( COc1ccc(C2CC(=O)C(C(c3ccc(O)cc3)C3C(=O)CC(c4ccc(OC)cc4)CC3=O)C(=O)C2)cc1 (configuration not stated) ) = 110

Reported GFP response, % of DMSO ( COC(=O)CNc1c(-c2ccccn2)nc2ccc(Br)cn12 ) = 106

Reported GFP response, % of DMSO ( COC(=O)c1ccc(/C=N/OCC(=O)NCCc2ccc(OC)c(OC)c2)cc1 ) = 106

Reported GFP response, % of DMSO ( Cc1cc(/C=C2/SC(=S)N(c3cccc(Cl)c3)C2=O)c(C)n1-c1cccnc1 ) = 117

Reported GFP response, % of DMSO ( COc1ccc(N=Cc2nc(-c3ccccc3)oc2OC(C)=O)cc1 ) = 90.9

Reported GFP response, % of DMSO ( O=C(O)Cc1csc(-c2cccc(Oc3ccccc3)c2)n1 ) = 93.2

Reported GFP response, % of DMSO ( C/C(=N\NC(=O)c1c(Br)c(C)nn1C)c1cccc(NC(=O)C2CCC2)c1 ) = 98.3

Reported GFP response, % of DMSO ( Cc1cccn2c(=O)c(/C=C(\C#N)C(=O)NC3CCS(=O)(=O)C3)c(N3CCC(C)CC3)nc12 (configuration not stated) ) = 99.7

Reported GFP response, % of DMSO ( COc1cc(/C=C2\N=C(c3ccccc3)OC2=O)ccc1OC(C)=O ) = 111

Reported GFP response, % of DMSO ( Cc1ccc(-n2ncc(C#N)c2/N=C/N(C)C)cc1 ) = 92

Reported GFP response, % of DMSO ( O=C(CSc1nc2ccsc2c(=O)n1CC1CCC(C(=O)O)CC1)c1ccc(F)cc1 (configuration not stated) ) = 94.8

Reported GFP response, % of DMSO ( COc1cc(/C=C2\C(=O)ON=C2c2ccc(Cl)cc2)ccc1O ) = 114

Reported GFP response, % of DMSO ( CCCC(=O)c1ccc(N2CCN(C(=O)c3ccc(Br)cc3)CC2)c(F)c1 ) = 105

Reported GFP response, % of DMSO ( NNC(=O)c1ccc(COc2ccc3ccccc3c2)cc1 ) = 93.8

Reported GFP response, % of DMSO ( Cc1ccc(S(=O)(=O)N(CC(=O)Nc2cccnc2)c2ccccc2C)cc1 ) = 92

Reported GFP response, % of DMSO ( CCOc1ccccc1NC(=O)c1nc(S(=O)(=O)Cc2cccc(C)c2)ncc1Cl ) = 96.5

Reported GFP response, % of DMSO ( C/C(CC(=O)Nc1cc(C)ccn1)=N\NC(=O)c1cccc(F)c1 ) = 94.8

Reported GFP response, % of DMSO ( COc1ccc(-c2[nH]ncc2-c2ccc(Cl)cc2)c(O)c1 ) = 101

----------
Experiment: RPL19A-GFP modulators, yeast TOR pathway, confirmation, cell-based, S. cerevisiae, flow cytometry, cherry picks, mother/daughter gates (AID 2270)
Conditions: S. cerevisiae RPL19A-GFP strain, 3 h, at 10 µM, stronger effect = lower value, 100 = same GFP as DMSO wells
Quantity: GFP response vs DMSO (%)
Express it in %; write the number only.

Reported GFP response vs DMSO ( O=C(OCn1ncc(Br)c(Br)c1=O)c1ccccc1Cl ) = 94.1

Reported GFP response vs DMSO ( O=C(c1ccccc1F)N1CCN(c2cccc(C(F)(F)F)c2)CC1 ) = 98.2

Reported GFP response vs DMSO ( COc1ccccc1-c1noc(CCC(=O)Nc2cccc(C(F)(F)F)c2)n1 ) = 98.2

Reported GFP response vs DMSO ( Cc1ccc(-c2csc(NC(=O)c3cccs3)n2)cc1 ) = 98.8

Reported GFP response vs DMSO ( COc1ccc(NS(=O)(=O)c2cccc3ccccc23)cc1 ) = 99.4

Reported GFP response vs DMSO ( COc1ccc(-c2nc(N)n(C(C)=O)n2)cc1 ) = 103

Reported GFP response vs DMSO ( O=C1CC(SCc2nc3ccccc3[nH]2)C(=O)N1c1ccc(F)cc1 (configuration not stated) ) = 102

Reported GFP response vs DMSO ( Cc1cccc(CN2CCSc3sccc3C2=O)c1 ) = 96.8

Reported GFP response vs DMSO ( CCC(CC)C(=O)Nc1cccc(/C(C)=N/NC(=O)c2ccccc2Cl)c1 ) = 98.6

Reported GFP response vs DMSO ( Cc1cc(=O)oc2c(C(=O)/C=C\c3cccs3)c(O)ccc12 ) = 98

Reported GFP response vs DMSO ( CCCc1nnc(N2C(=O)c3cccc4cccc(c34)C2=O)s1 ) = 103

Reported GFP response vs DMSO ( O=C(N/N=C/c1ccccn1)c1sc2ccccc2c1Cl ) = 103
